Ref: patent US20170008928A1

target entity: T1, human cholecystokinin-2 receptor (human), P32239
T1 chain: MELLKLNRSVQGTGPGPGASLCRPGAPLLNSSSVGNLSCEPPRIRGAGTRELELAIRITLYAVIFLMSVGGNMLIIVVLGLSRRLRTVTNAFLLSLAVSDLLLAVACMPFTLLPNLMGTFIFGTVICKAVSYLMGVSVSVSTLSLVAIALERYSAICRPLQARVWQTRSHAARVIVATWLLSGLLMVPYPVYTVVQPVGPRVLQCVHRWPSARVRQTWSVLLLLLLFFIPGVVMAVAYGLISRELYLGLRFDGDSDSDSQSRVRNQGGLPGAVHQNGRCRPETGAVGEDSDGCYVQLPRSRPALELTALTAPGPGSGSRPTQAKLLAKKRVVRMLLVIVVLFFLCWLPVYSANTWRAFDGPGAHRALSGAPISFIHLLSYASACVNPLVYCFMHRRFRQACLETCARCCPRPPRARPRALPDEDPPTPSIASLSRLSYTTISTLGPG
protocol description: SPA competition vs [125I]-CCK-8s, membranes
Starred links: 1 amine or outer side, 2 acyl side, 3 side chain; linkers in the order of their positions; H or OH if unused. Non-standard residues stand in square brackets, D forms with d. No end group written: not given here. *: point of attachment. sY = N[C@@H](Cc1ccc(OS(=O)(=O)O)cc1)C(=O)O; C18 diacid = O=C(O)CCCCCCCCCCCCCCCCC(=O)*; γGlu = O=C(O)[C@H](CCC(=O)[*:2])N[*:1]; NMeF = CN[C@@H](Cc1ccccc1)C(=O)O; AEEA = NCCOCCOCC(=O)O
measurement label: IC50

Solved cases (4 shown):
binder: {C18 diacid-γGlu-AEEA-AEEA}-D[sY]LGWV[DMeAsp][NMeF]-NH2
obs value: 6400 nM

binder: {C18 diacid-γGlu-AEEA-AEEA}-D[sY]LGWI[DMeAsp][NMeF]-NH2
obs value: 2300 nM

binder: {C18 diacid-γGlu-AEEA-AEEA}-D[sY]LGWP[DMeAsp][NMeF]-NH2
obs value: 1000 nM

binder: {C18 diacid-γGlu-AEEA-AEEA}-D[sY]LGWL[DMeAsp][NMeF]-NH2
obs value: 420 nM

Now for the binder whose IC50 we want.
// query Which IC50 reading was recorded for the binder D[sY]LGWI[DMeAsp][NMeF]-NH2 [Asp-sTyr-Leu-Gly-Trp-Ile-DMeAsp-MePhe-amide] ?
// result 6100 nM
